- METHOD_DESCRIPTION: NCI Yeast Anticancer Drug Screen. Data for the wt1 strain (AID 149);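 further: 0% = growth of vehicle-treated wt1 cultures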
- TEST_CONDITIONS: S. cerevisiae wt1 strain (SPY 50644) growth inhibition; at 33.0 µM; hits give high values
The panel holds about 79,000 compounds, 15% with a hit somewhere; the sample as a whole holds those more often.
RECORDED_METRIC: growth inhibition (%)

COMPOUND	QUANTITATIVE_RESULT
Cc1nc2sc3c(c2c(=O)o1)CCCC3	-1
CC(=O)N1C=Cc2c(c(C)c3c([nH]c4ccccc43)c2C)C1	90
CN(C)CCNC(=Cc1ccc2ccccc2[n+]1C)NCCN(C)C	-1
CC(C)OC(=O)NNc1cccc(Cl)c1	95
O=C1C(CCSc2ccccc2)C(=O)N(c2ccccc2)C1c1ccccc1 (stereo unspecified)	96
N#CCCC1C(C#N)C2(Cl)CC1(Cl)C(Cl)=C2Cl (stereo unspecified)	61
